tested on: PfSIP2 AP2 domain 1 (GST-tagged); experiment: gcPBM binding intensity (ln(normalized median fluorescence intensity)); higher = stronger DNA binding
Over roughly 25,000 sequences, “ln(normalized median fluorescence intensity)” has its median near 7.1; the highest 2% begin near 10. The sample holds the highest values, similar sequences and a random draw of the others, so the mix is not that of the screen.
property: gcPBM binding intensity (ln)
Note: the reply should be a number with no unit written.

// below: answered sequences
- biopolymerSequence: "AACTTTTTACAAACAGGTACGCATATATATATATAT [XGTACX_site5081]"
  systemTested: "PfSIP2 AP2 domain 1 (GST-tagged)"
  property: "gcPBM binding intensity (ln)"
  readoutNumber: 8.9
- biopolymerSequence: "ATATAAAATCAACAAAAAAAAAAAATATATATATAT [XGTACX_negctrl_site251]"
  systemTested: "PfSIP2 AP2 domain 1 (GST-tagged)"
  property: "gcPBM binding intensity (ln)"
  readoutNumber: 9.03

Exercise: Need gcPBM binding intensity (ln), item AAAATAAAAATAAAAGCACACATAAATATATATATA [CACACA_site8409]
Solution: 8.73

Exercise: Need gcPBM binding intensity (ln), item TATATATAATATAGTGCATGTAAAAAATAAACCATG [TGCATGCA_site932]
Solution: 9.18
